target: Human HIF-PHD2 (Homo sapiens); construct: FLAG-tagged full length PHD2 expressed in and purified from baculovirus-infected Sf9 cells; FLAG; made in house; host or cells: baculovirus-infected Sf9 cells; assay: Inhibition of the hydroxylation of a HIF peptide by PHD2 (time resolved fluorescence, 384-well); assay type: biochemical; conditions: FLAG-tagged full length PHD2; 0.2 μM 2-oxoglutarate, 0.5 μM HIF-1α peptide; 45 minutes at room temperature; read-out: Human HIF-PHD2 IC50
Below, each of the compounds is paired with its reported log10(IC50) value.
Please keep in mind that the values are log10 of IC50 expressed in nM.

Here's what some known entries look like.
> print(dat)
                                   compound  measured.result
1  O=C(O)CNC(=O)c1c(O)c2c(O)ccc3c2n(c1=O)CC(c1ccc(C(F)(F)F)cc1)O3 (stereo not shown) [Example 80]             1.08
2  N#Cc1ccc(C2Cn3c(=O)c(C(=O)NCC(=O)O)c(O)c4c(C#N)ccc(c43)O2)cc1 (stereo not shown) [Example 54]             0.04
3  N#Cc1ccc2c3c1c(O)c(C(=O)NCC(=O)O)c(=O)n3CC(c1ccc(C(F)(F)F)cc1)O2 (stereo not shown) [Example 13]             0.00
4  O=C(O)CNC(=O)c1c(O)c2ccc(F)c3c2n(c1=O)CC(c1ccc(C(F)(F)F)cc1)N3 (stereo not shown) [Example 116]             0.94
5  O=C(O)CNC(=O)c1c(O)c2cccc3c2n(c1=O)CC(c1ccc(C(F)(F)F)cc1)C3 (stereo not shown) [Example 9]             0.86
6  N#Cc1ccc2c3c1c(O)c(C(=O)NCC(=O)O)c(=O)n3C(c1ccc(C(F)(F)F)cc1)CS2 (stereo not shown) [Example 99]             0.71

Lookup: What does the data say about its log10(IC50)? Entry: CN1CC(c2ccc(C(F)(F)F)cc2)n2c(=O)c(C(=O)NCC(=O)O)c(O)c3cc(C#N)cc1c32 (stereo not shown) [Example 95]
Found: 0.74

Lookup: What does the data say about its log10(IC50)? Entry: CS(=O)(=O)c1ccc2c3c1c(O)c(C(=O)NCC(=O)O)c(=O)n3C(Cc1ccc(C(F)(F)F)cc1)CO2 (stereo not shown) [Example 28]
Found: 1.62

Lookup: What does the data say about its log10(IC50)? Entry: Cc1ccc2c(O)c(C(=O)NCC(=O)O)c(=O)n3c2c1OCC3 [Example 39]
Found: 1.08

Lookup: What does the data say about its log10(IC50)? Entry: CS(=O)(=O)c1cc2c3c(c1)c(O)c(C(=O)NCC(=O)O)c(=O)n3CC(c1ccc(C(F)(F)F)cc1)O2 (single isomer, unassigned) [Example 18]
Found: 0.11

* * *

molecular target: Human HIF-PHD2 (Homo sapiens); construct: FLAG-tagged full length PHD2 expressed in and purified from baculovirus-infected Sf9 cells; FLAG; made in house; host or cells: baculovirus-infected Sf9 cells; experiment: Inhibition of the hydroxylation of a HIF peptide by PHD2 (time resolved fluorescence, 384-well); type: biochemical; settings: FLAG-tagged full length PHD2; 0.2 μM 2-oxoglutarate, 0.5 μM HIF-1α peptide; 45 minutes at room temperature; read-out: Human HIF-PHD2 IC50
Below, each of the compounds is paired with its reported log10 of IC50 value.
Please keep in mind that the values are log10 of IC50 expressed in nM.

Here's what some known entries look like.
> print(dat)
                                   compound  measured.result
1  O=C(O)CNC(=O)c1c(O)c2cccc3c2n(c1=O)C(c1cncs1)CS3 (stereo not drawn)             0.71
2  N#Cc1ccc2c3c1c(O)c(C(=O)NCC(=O)O)c(=O)n3C(Cc1ccc(C(F)(F)F)cc1)CO2 (stereo not drawn)             0.11
3  Cc1ccc2c(O)c(C(=O)NCC(=O)O)c(=O)n3c2c1CCC3             1.26
4  O=C(O)CNC(=O)c1c(O)c2c(Br)ccc3c2n(c1=O)CC(c1ccc(Br)cc1)O3 (stereo not drawn)             0.40
5  CS(=O)(=O)c1ccc2c(O)c(C(=O)NCC(=O)O)c(=O)n3c2c1OCC3Cc1ccc(C(F)(F)F)cc1 (stereo not drawn)             0.00
6  CS(=O)(=O)c1ccc2c(O)c(C(=O)NCC(=O)O)c(=O)n3c2c1CCC3             0.04
7  N#Cc1ccc(C2Cn3c(=O)c(C(=O)NCC(=O)O)c(O)c4cc(C#N)cc(c43)O2)cc1 (stereo not drawn)            -0.30
8  O=C(O)CNC(=O)c1c(O)c2cccc3c2n(c1=O)CC(c1ccc(C(F)(F)F)cc1)S3(=O)=O (stereo not drawn)            -0.10

Lookup: // lookup log10 of IC50 | system=Human HIF-PHD2 (Homo sapiens) | key= O=C(O)CNC(=O)c1c(O)c2cccc3c2n(c1=O)C(c1ccc(C(F)(F)F)cc1)CO3 (single isomer, unassigned) [Example 1a]
Found: 1.53

Lookup: // lookup log10 of IC50 | system=Human HIF-PHD2 (Homo sapiens) | key= O=C(O)CNC(=O)c1c(O)c2cccc3c2n(c1=O)CC(c1ccc(C(F)(F)F)cc1)N3 (stereo not drawn) [Example 108]
Found: 0.81

Lookup: // lookup log10 of IC50 | system=Human HIF-PHD2 (Homo sapiens) | key= O=C(O)CNC(=O)c1c(O)c2cc(F)cc3c2n(c1=O)CC(c1ccc(C(F)(F)F)cc1)N3 (stereo not drawn)
Found: 0.66

Lookup: // lookup log10 of IC50 | system=Human HIF-PHD2 (Homo sapiens) | key= O=C(O)CNC(=O)c1c(O)c2cccc3c2n(c1=O)CC(c1ccc(C(F)(F)F)nc1)S3 (stereo not drawn)
Found: 0.53

Lookup: // lookup log10 of IC50 | system=Human HIF-PHD2 (Homo sapiens) | key= O=C(O)CNC(=O)c1c(O)c2c(F)ccc3c2n(c1=O)C(c1ccc(C(F)(F)F)cc1)CS3 (stereo not drawn)
Found: 1.14

* * *

Below, each of the molecules is paired with its reported pIC50 value.
target: Human HIF-PHD2 (Homo sapiens, UniProt Q9GZT9); construct: FLAG-tagged full length PHD2 expressed in and purified from baculovirus-infected Sf9 cells; FLAG; made in house; host or cells: baculovirus-infected Sf9 cells; assay: Inhibition of the hydroxylation of a HIF peptide by PHD2 (time resolved fluorescence, 384-well); format: biochemical; settings: FLAG-tagged full length PHD2; 0.2 μM 2-oxoglutarate, 0.5 μM HIF-1α peptide; 45 minutes at room temperature; read-out: Human HIF-PHD2 IC50
Sequence (Q9GZT9 whole entry): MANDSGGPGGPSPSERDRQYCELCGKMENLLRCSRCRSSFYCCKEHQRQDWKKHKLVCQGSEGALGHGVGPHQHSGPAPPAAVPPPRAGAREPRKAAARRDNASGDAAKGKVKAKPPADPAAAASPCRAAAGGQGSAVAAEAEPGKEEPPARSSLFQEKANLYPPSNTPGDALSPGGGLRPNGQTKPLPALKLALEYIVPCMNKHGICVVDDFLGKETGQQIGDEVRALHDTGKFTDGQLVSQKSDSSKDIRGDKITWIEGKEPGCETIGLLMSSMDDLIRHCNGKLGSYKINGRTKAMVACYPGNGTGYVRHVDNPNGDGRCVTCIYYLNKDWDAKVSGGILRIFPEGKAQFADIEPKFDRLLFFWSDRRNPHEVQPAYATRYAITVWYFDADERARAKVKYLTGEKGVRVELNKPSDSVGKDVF
Quick note: pIC50 values are minus log10 of concentrations in mol/L.

Here's what some known entries look like.
> print(dat)
                                   molecule  measured.result
1  CS(=O)(=O)c1cc2c3c(c1)c(O)c(C(=O)NCC(=O)O)c(=O)n3CCC2             8.85
2  N#Cc1ccc2c3c1c(O)c(C(=O)NCC(=O)O)c(=O)n3CC(c1ccc(C(F)(F)F)cc1)N2 (stereo not shown)             9.10
3  O=C(O)CNC(=O)c1c(O)c2cccc3c2n(c1=O)C(c1ccc(C(F)(F)F)cc1)CS3(=O)=O (stereo not shown)             8.07
4  O=C(O)CNC(=O)c1c(O)c2c(Cl)ccc3c2n(c1=O)CC(c1ccc(C(F)(F)F)cc1)O3 (single isomer, unassigned)             8.74
5  O=C(O)CNC(=O)c1c(O)c2cccc3c2n(c1=O)CC(c1ccc(C(F)(F)F)nc1)S3(=O)=O (stereo not shown)             8.20

Lookup: What does the data say about its pIC50? Entry: CN1c2cc(F)cc3c(O)c(C(=O)NCC(=O)O)c(=O)n(c23)CC1c1ccc(C(F)(F)F)cc1 (stereo not shown)
Found: 7.82

Lookup: What does the data say about its pIC50? Entry: Cc1ccc2c(O)c(C(=O)NCC(=O)O)c(=O)n3c2c1OC(c1ccc(C(F)(F)F)cc1)C3 (stereo not shown)
Found: 8.27

Lookup: What does the data say about its pIC50? Entry: COc1ccc2c3c1c(O)c(C(=O)NCC(=O)O)c(=O)n3CC(c1ccc(C(F)(F)F)cc1)O2 (stereo not shown)
Found: 8.40

Lookup: What does the data say about its pIC50? Entry: O=C(O)CNC(=O)c1c(O)c2cccc3c2n(c1=O)CC(c1cncs1)C3 (racemic) [Example 50]
Found: 8.14

Lookup: What does the data say about its pIC50? Entry: `O=C(O)CNC(=O)c1c(O)c2ccc(-c3cccnc3)c3c2n(c1=O)CCO3`
Found: 8.44

* * *

target: Human HIF-PHD2 (Homo sapiens); construct: FLAG-tagged full length PHD2 expressed in and purified from baculovirus-infected Sf9 cells; FLAG; made in house; host or cells: baculovirus-infected Sf9 cells; test: Inhibition of the hydroxylation of a HIF peptide by PHD2 (time resolved fluorescence, 384-well); format: biochemical; details: FLAG-tagged full length PHD2; 0.2 μM 2-oxoglutarate, 0.5 μM HIF-1α peptide; 45 minutes at room temperature; read-out: Human HIF-PHD2 IC50
Returns: string. Value is Criterion met if measured IC50 is below 20 nM, and Criterion not met if it is greater than or equal to it.

Record excerpt, results attached:
> print(dat)
                                   molecule              class
1  O=C(O)CNC(=O)c1c(O)c2cccc3c2n(c1=O)CC(c1cncs1)N3 (centres unmarked)      Criterion met
2  N#Cc1ccc2c(O)c(C(=O)NCC(=O)O)c(=O)n3c2c1OCC3Cc1ccc(C(F)(F)F)cc1 (centres unmarked)      Criterion met
3  O=C(O)CNC(=O)c1c(O)c2cccc3c2n(c1=O)C(c1ccccc1)C3 (racemic)  Criterion not met
4  O=C(O)CNC(=O)c1c(O)c2cccc3c2n(c1=O)C(c1ccc(Cl)cc1)CO3 (centres unmarked)  Criterion not met

Shift focus to the following entry.
Lookup: Strictly below 20 nM: is that where IC50 of O=C(O)CNC(=O)c1c(O)c2cccc3c2n(c1=O)C(c1ccc(C(F)(F)F)cc1)CS3 (centres unmarked) sits?
Found: Criterion not met
